test system: PBMC cells obtained from mite allergic patients and non-allergics; test: Ex vivo stimulation of PBMC: cytokine production (IFN-gamma, IL-9, IL-10, IL-17, IL-31); assay type: cell-based, human; conditions: non-allergic individuals; IL-13
Record form. Attribute: % non-allergic individuals with cytokine production in ex-vivo T cell assay IL-13. Fill in for each entry.
Answers are plain numbers, in %.

>>> reported_measurement("A001: house dust mite protein; SEQ ID NO: 13 (Der f), 14 (Der p); recombinant test protein (protein) KKSPDCDIERPIRECLKDGLLRYSSGQKINQFPDTIQDLNRACEELKKSETCARTFIDTCTESSYEKRSLDSLLDGIQRVMKRLCRSQTKKEKLLENVGCANSVVQDTKQCLKNYRMLVFAANKLDNKNKIMRILCCKSRKVAPCIGEAMKAKGTAVCSAKNIDYFKDVHQNIKQEMTAVVCSDFERDQCENVDVPNISESEYKDQNIFNPLRDLYKKVILG")
0

The molecule listed as A024: house dust mite protein; SEQ ID NO: 11 (Der f), 12 (Der p), 318 (Blo t) (protein) MSISAHGGGLVNGIAGMENKFTVFTSGKPVSGLTVAFEGPTKPEINFNSTKDGSVDVGYIPKAGGQYKIHIKYEGKEIVGSPFKCNISGDESTHRKLTEKVKVGGPNISTGKVNQDNQLTIDCKEAGITGGISFAMEGPAKVEVSFRNNNDGTITVIYKPPTPGDYKLHLKFNDIHLPGSPYPIVVSA has a reported % non-allergic individuals with cytokine production in ex-vivo T cell assay IL-13 of 0
